Test system: MIA PaCa-2 cells
assay_remarks: Gemcitabine Combination Cell Assay (Cell Titer Glo)
Format: cell-based
measurement_conditions: Homo sapiens, MIA PaCa-2, 72 h, read-out: Chk1 IC50 (nM)
Description: Gemcitabine Combination Cell Assay Exponentially growing MIA PaCa-2 (ATCC CRL-1420) cells are treated with trypsin to remove cells from the plate surface. […] Luminescence (relative light units, RLU) is recorded using a BMG Polarstar Omega plate reader. […] The IC50 for gemcitabine alone and at each concentration of Chk1 is determined using a four-parameter non-linear regression curve fit. […]
Where a name gives a salt, the structure may show the parent alone.

# molecule, system_under_test, IC50 [nM]
data = [
    ("CCN1CCC[C@@H]1Cc1ccc(-c2cc(Nc3cnc(C#N)cn3)n[nH]2)c(OC)c1 [Example 149, hydrochloride]", "MIA PaCa-2 cells", 188),
    ("COc1cc(C2CCN(C)CC2)ccc1-c1cc(Nc2cnc(C#N)cn2)n[nH]1 [Example 11, hydrochloride]", "MIA PaCa-2 cells", 214),
    ("CCN1CCC(c2ccc(-c3cc(Nc4cnc(C#N)cn4)n[nH]3)c(OC)c2)C(F)C1 (stereo not drawn) [Example 87, hydrochloride]", "MIA PaCa-2 cells", 540),
]
